# assay system: Cytochrome P450 2C19 (Homo sapiens)
# Sequence (P33261 whole entry): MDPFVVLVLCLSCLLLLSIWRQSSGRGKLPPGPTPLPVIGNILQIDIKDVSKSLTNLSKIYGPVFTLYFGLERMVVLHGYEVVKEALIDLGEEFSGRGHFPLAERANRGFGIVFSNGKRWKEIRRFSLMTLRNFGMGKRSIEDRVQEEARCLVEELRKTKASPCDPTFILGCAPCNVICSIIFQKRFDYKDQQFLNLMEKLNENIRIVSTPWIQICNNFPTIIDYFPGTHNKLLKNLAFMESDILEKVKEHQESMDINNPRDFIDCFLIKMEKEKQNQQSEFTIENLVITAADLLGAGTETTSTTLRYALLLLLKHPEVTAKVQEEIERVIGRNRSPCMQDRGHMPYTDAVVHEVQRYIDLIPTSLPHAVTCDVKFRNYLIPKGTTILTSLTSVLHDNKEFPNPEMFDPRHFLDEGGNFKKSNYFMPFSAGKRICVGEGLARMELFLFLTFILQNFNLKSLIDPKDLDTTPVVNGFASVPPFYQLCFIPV
readout label: IC50

Entry under review: C[C@@]12COCCN1c1nc(-c3cccc4[nH]ccc34)ncc1N(C1CCOCC1)C2=O . Reported IC50?
> 40 µM

====

# assay system: Cytochrome P450 2C8 (Homo sapiens, UniProt P10632)
# Sequence (P10632 whole entry): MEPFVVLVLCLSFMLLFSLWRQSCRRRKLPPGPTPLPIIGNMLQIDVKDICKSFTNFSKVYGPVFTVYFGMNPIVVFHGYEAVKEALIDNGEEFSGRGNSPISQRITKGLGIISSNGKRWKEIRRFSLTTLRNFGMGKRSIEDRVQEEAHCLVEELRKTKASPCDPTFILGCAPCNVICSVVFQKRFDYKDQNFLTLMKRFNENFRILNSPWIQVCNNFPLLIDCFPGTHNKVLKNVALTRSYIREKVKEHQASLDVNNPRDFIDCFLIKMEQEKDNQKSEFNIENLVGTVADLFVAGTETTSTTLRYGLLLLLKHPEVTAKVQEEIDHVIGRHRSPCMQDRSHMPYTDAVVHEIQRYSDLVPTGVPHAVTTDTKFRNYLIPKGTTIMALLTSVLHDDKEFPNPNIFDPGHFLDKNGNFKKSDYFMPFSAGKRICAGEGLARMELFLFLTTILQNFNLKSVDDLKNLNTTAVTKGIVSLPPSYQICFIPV
pIC50: −log10 of the molar value.
readout label: pIC50

Record C[C@@]12COCCN1c1nc(-c3cccc4[nH]ccc34)ncc1N(C1CCOCC1)C2=O : what is its pIC50 with Cytochrome P450 2C8 (Homo sapiens, UniProt P10632)?
< 4.40

====

# assay system: Cytochrome P450 1A2 (Homo sapiens)
# Sequence (P05177 whole entry): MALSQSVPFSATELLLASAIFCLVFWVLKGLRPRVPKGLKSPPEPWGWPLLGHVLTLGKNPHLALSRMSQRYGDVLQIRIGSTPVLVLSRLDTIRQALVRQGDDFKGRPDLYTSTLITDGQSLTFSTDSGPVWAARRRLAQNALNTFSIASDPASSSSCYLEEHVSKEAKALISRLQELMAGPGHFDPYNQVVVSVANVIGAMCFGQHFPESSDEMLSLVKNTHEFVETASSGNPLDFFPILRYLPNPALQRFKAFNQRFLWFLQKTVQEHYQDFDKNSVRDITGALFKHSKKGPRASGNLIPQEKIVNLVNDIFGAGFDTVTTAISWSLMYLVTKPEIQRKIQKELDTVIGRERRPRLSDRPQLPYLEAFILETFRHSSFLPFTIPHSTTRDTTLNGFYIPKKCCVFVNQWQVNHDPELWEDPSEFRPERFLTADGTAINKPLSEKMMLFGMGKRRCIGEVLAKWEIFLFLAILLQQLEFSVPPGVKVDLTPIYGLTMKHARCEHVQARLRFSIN
readout label: IC50

What measured IC50 goes with C[C@@]12COCCN1c1nc(-c3cccc4[nH]ccc34)ncc1N(C1CCOCC1)C2=O ?
> 40 µM

====

# assay system: Cytochrome P450 3A4 (Homo sapiens)
# Sequence (P08684 whole entry): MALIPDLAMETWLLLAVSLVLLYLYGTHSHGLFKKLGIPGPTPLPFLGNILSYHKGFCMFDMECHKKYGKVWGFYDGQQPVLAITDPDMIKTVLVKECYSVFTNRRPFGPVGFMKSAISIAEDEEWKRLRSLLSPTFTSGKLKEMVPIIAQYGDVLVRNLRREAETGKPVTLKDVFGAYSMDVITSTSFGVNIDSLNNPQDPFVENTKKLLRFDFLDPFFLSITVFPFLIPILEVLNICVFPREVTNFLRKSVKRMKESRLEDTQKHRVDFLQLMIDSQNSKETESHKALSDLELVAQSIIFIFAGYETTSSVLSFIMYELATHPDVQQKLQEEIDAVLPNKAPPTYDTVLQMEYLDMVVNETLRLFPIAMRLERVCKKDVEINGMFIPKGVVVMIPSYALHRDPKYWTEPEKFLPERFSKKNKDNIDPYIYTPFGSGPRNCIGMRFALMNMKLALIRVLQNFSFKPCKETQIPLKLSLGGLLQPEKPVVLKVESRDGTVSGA
# procedure summary: Inhibition of CYP3A4 (unknown origin)
# Type: ADME
pIC50: −log10 of the molar value.
readout label: pIC50

Sample C[C@@]12COCCN1c1nc(-c3cccc4[nH]ccc34)ncc1N(C1CCOCC1)C2=O — what was its pIC50?
< 4.40

====

Record form. Attribute: CLint scaled. Fill in for each entry.
# procedure summary: Apparent intrinsic clearance in human liver microsomes
# Type: ADME, Microsome
# experimental parameters: read-out: CLH(app)
Answers are plain numbers, in mL/min/kg.

Study these solved cases before continuing.
1. C[C@@]12COCCN1c1nc(-c3cccc4[nH]ccc34)ncc1N(C1CCOCC1)C2=O | 10
2. COCCCN1C(=O)[C@]2(C)COCCN2c2nc(-c3cnc4[nH]ccc4c3)ncc21 | 32
3. Cc1cccc2c(-c3ncc4c(n3)N3CCOC[C@@]3(C)C(=O)N4[C@H]3CC[C@H](O)CC3)c[nH]c12 | 7
4. Cc1cccc2c(-c3ncc4c(n3)N3CCOC[C@@]3(C)C(=O)N4[C@H]3CC[C@@H](O)CC3)c[nH]c12 | 7
5. Cc1cccc2c(-c3ncc4c(n3)N3CCOC[C@@]3(C)C(=O)N4C3(CCCO)CC3)c[nH]c12 | 6

I have 3 molecules here; please give me CLint scaled for each one.
1. C[C@@]12COCCN1c1nc(-c3cccc4[nH]ccc34)ncc1N([C@H]1CC[C@@H](O)CC1)C2=O
2. Cc1ccc(-c2ncc3c(n2)N2CCOC[C@@]2(C)C(=O)N3[C@H]2CC[C@@H](O)CC2)c2cc[nH]c12
3. CC(=O)N1CCC(N2C(=O)[C@]3(C)COCCN3c3nc(-c4cccc5[nH]ccc45)ncc32)CC1

1. 6
2. 8
3. 6

Which value of CLint scaled has been reported for C[C@@]12COCCN1c1nc(-c3cnc4[nH]ccc4c3)ncc1N(C1CCOCC1)C2=O in the records?
6

All figures here come from ChEMBL document CHEMBL5370674.
